B1: Caulobacter ParB omega fusion; a variant is named by its letters at X, in order, B8GW30 (parent)
chain: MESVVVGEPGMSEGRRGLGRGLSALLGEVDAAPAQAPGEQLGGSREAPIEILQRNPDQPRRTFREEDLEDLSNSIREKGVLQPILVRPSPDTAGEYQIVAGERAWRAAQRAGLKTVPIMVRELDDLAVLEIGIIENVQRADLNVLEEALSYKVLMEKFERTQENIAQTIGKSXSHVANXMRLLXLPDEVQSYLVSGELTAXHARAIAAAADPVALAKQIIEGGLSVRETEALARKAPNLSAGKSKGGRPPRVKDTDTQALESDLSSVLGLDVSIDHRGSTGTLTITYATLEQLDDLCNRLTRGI

Variants of: B1
Assay: one-hybrid fitness for binding NBS DNA (the Noc-binding site; scaled: cognate 1, non-cognate 0); higher = stronger binding
Settings: with NBS DNA site
In all, about 81,000 sequences were measured (“one-hybrid fitness for binding NBS DNA”: median about -0.1, highest 2% from about 0.36 on). Many of the other results were omitted from the sample, so the highest values are more common in it than they were.
Each entry below lists one item and its recorded one-hybrid fitness for binding NBS DNA value.

>  <variant_key>
EAPH

>  <relation_symbol>
≤

>  <one-hybrid fitness for binding NBS DNA>
0.2

$$$$
>  <variant_key>
APTM

>  <relation_symbol>
≤

>  <one-hybrid fitness for binding NBS DNA>
0.2

$$$$
>  <variant_key>
RCMA

>  <relation_symbol>
≤

>  <one-hybrid fitness for binding NBS DNA>
0.2

$$$$
>  <variant_key>
ECPR

>  <relation_symbol>
≤

>  <one-hybrid fitness for binding NBS DNA>
0.2

$$$$
>  <variant_key>
PYQW

>  <relation_symbol>
≤

>  <one-hybrid fitness for binding NBS DNA>
0.2

$$$$
>  <variant_key>
RGWI

>  <relation_symbol>
≤

>  <one-hybrid fitness for binding NBS DNA>
0.2

$$$$
>  <variant_key>
RPMA

>  <relation_symbol>
≤

>  <one-hybrid fitness for binding NBS DNA>
0.2

$$$$
>  <variant_key>
QRAD

>  <relation_symbol>
=

>  <one-hybrid fitness for binding NBS DNA>
0.25

$$$$
>  <variant_key>
RRIA

>  <relation_symbol>
=

>  <one-hybrid fitness for binding NBS DNA>
0.552

$$$$
>  <variant_key>
QRAE

>  <relation_symbol>
=

>  <one-hybrid fitness for binding NBS DNA>
0.332

$$$$
>  <variant_key>
QCAS

>  <relation_symbol>
=

>  <one-hybrid fitness for binding NBS DNA>
0.451

$$$$
>  <variant_key>
LMCG

>  <relation_symbol>
≤

>  <one-hybrid fitness for binding NBS DNA>
0.2

$$$$
>  <variant_key>
FPTH

>  <relation_symbol>
≤

>  <one-hybrid fitness for binding NBS DNA>
0.2

$$$$
>  <variant_key>
QRAH

>  <relation_symbol>
=

>  <one-hybrid fitness for binding NBS DNA>
0.583

$$$$
>  <variant_key>
RRPA

>  <relation_symbol>
=

>  <one-hybrid fitness for binding NBS DNA>
0.282

$$$$
>  <variant_key>
QSFS

>  <relation_symbol>
=

>  <one-hybrid fitness for binding NBS DNA>
0.256

$$$$
>  <variant_key>
TLMC

>  <relation_symbol>
≤

>  <one-hybrid fitness for binding NBS DNA>
0.2

$$$$
>  <variant_key>
EAPR

>  <relation_symbol>
=

>  <one-hybrid fitness for binding NBS DNA>
0.408

$$$$

Where these numbers come from: a collection of fitness landscapes (doi:10.1016/j.celrep.2020.107928)
